target: G protein-coupled receptor 88 (Homo sapiens, UniProt Q9GZN0); experiment: Agonist activity at GPR88 (unknown origin) transfected in forskolin-stimulated HEK cells assessed as inhibition of cAMP production after 30 mins by HTRF method relative to control; assay type: functional, cell-based, HEK293
Sequence (Q9GZN0 whole entry): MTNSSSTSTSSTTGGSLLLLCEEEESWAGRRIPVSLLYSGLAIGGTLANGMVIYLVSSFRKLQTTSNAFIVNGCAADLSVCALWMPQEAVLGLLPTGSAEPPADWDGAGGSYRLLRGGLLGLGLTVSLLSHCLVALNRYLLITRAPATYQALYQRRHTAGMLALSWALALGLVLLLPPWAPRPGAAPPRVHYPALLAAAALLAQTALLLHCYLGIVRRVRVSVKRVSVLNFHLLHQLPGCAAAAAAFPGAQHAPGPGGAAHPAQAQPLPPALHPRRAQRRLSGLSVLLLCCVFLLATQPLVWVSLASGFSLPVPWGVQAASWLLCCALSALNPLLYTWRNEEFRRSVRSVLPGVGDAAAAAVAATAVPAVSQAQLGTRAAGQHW
pEC50: −log10 of the molar value.

COMPOUND	pEC50
C[C@H](C(=O)N[C@@H](CO)c1ccc(OCC2CCO2)cc1)c1ccccc1 (stereo partly drawn)	< 5.00
O=C(N[C@@H](CO)c1ccc2ccccc2c1)[C@@H]1C[C@@H]1c1ccccc1	< 4.09
CCCC(C)COc1ccc([C@H](CO)NC(=O)Cc2ccccc2)cc1 (mixture of isomers)	< 5.00
O=C(N[C@@H](CO)c1ccc2ccccc2c1)[C@H]1C[C@H]1c1ccccc1	< 3.96
CC[C@H](C)COc1ccc([C@H](CN)NC(=O)[C@@H](C)c2ccccc2)cc1	< 5.00
CO[C@@H](C)COc1ccc([C@H](CO)NC(=O)[C@@H](C)c2ccccc2)cc1	< 5.00
O=C(N[C@@H](CO)c1ccc2ccccc2c1)[C@@H]1C[C@H]1c1ccccc1	< 3.57
COCC(C)Oc1ccc([C@H](CO)NC(=O)[C@@H](C)c2ccccc2)cc1 (stereo partly drawn)	< 5.00
